target: 14C-HIgG (human); assay: second round of secondary screening, batch, competitive (MEM), 14C counting
No end group written: not given here.
quantity name: Unbound (%)
Give a bare numeral; the unit % is implied.

binder	unit abbreviation	Unbound
HIQLDGA-{Toyopearl AF‑Amino‑650 resin}	%	90
HWIDPLA-{Toyopearl AF‑Amino‑650 resin}	%	80.1
KRGFYYA-{Toyopearl AF‑Amino‑650 resin}	%	82.7
KGEA-{Toyopearl AF‑Amino‑650 resin}	%	92.7
HVHYYWA-{Toyopearl AF‑Amino‑650 resin}	%	56.7

// moving on: another record for Unbound
Asked: Could you share which Unbound value was measured for HVWQLKA-{Toyopearl AF‑Amino‑650 resin} ?
Given back: 85
